experiment: Human HepG2 cell viability assay in 384 well format; assay type: toxicity, cell-based; design: dose 125 nL, time 70.5 hour; concentration not given beside the values; conditions: HepG2 cells, read-out: Inhibition
Answer each item with its documented cytotoxicity at 70.5 h.
One number for each entry, in %.

Previously resolved entries follow.
- compound: "O=C(COc1ccc(C(F)(F)F)cc1)N1CCOCC1c1ncon1 (configuration not stated)"
  display.unit: "%"
  endpoint.result: -6
- compound: "O=C(NCCC1COc2ccccc2O1)c1ccc(-c2cc[nH]n2)nc1 (configuration not stated)"
  display.unit: "%"
  endpoint.result: -4.68
- compound: "CN(CCOc1cccc(F)c1)CC(=O)Nc1ccncc1"
  display.unit: "%"
  endpoint.result: -10.9

For every item in the list below, what is its measured cytotoxicity at 70.5 h?
1. CCN1CCC(NC(=O)CNC(C)Cn2cccn2)CC1 (configuration not stated)
2. Cc1cc(O)c(OCC(=O)/N=c2\[nH]c(C)cs2)cn1
3. COc1c(CNCc2ccc(N3CCCC3)nc2)c(C(C)C)nn1C
4. COC(=O)CNC(=O)c1nc(Cl)sc1C(C)C

1. 11.4
2. -2.18
3. -9.28
4. 24.5

For every item in the list below, what is its measured cytotoxicity at 70.5 h?
1. CC(NCCN1CCN(C(=O)C2CCCC2)CC1)c1nccs1 (configuration not stated)
2. Cc1cnn(CC2CCCN2C(=O)c2cnc3n[nH]c(C)c3c2)c1 (configuration not stated)

[7.3, 15.1]

For every item in the list below, what is its measured cytotoxicity at 70.5 h?
1. COCCCOc1ccc(C(=O)N(Cc2cnn(C)c2)C(C)C)cn1
2. CC(=O)N1CCCN(C(=O)c2cnc3n[nH]c(C)c3c2)CC1
3. C=C(C)CNC(C)c1ccc(S(C)(=O)=O)c(F)c1 (configuration not stated)

1. -7.46
2. 11.1
3. -9.09

* * *

assay: Human HepG2 cell viability assay in 384 well format; format: toxicity, cell-based; design: dose 125 nL, time 70.5 hour; concentration not given beside the values; conditions: HepG2 cells, read-out: Inhibition
Answer each item with its documented cytotoxicity at 70.5 h.
Answers are plain numbers, in %.

Previously resolved entries follow.
- compound: "COc1nn(C)cc1C(=O)N1CCC(c2nnc(-c3ccsc3)o2)CC1"
  cytotoxicity at 70.5 h [%]: -6.31
- compound: "COc1cc(CNCc2c(C(C)C)nn(C)c2N(C)C)ccn1"
  cytotoxicity at 70.5 h [%]: -5.93
- compound: "COCCCNS(=O)(=O)c1cc(Br)sc1C"
  cytotoxicity at 70.5 h [%]: -6.02

For every item in the list below, what is its measured cytotoxicity at 70.5 h?
1. Cn1ccnc1COc1ccc(CSc2nncn2C2CC2)cc1
2. CN1CCN(C2CCN(Cc3nnc(C(C)(C)C)o3)CC2)C1=O
3. Cc1ccc(NC(=O)Nc2cnc(N3CCN(C)CC3)nc2)cc1
4. Cc1cnc(N2C(=O)CSC2c2cccs2)s1 (stereo unspecified)
5. CC(C)N1CC[C@@H]2[C@H](COCC3CC3)CN(C)C(=O)[C@@H]2CC1
6. CN(C)c1ccccc1C(=O)N1CCCC(c2ccc(C(=O)O)cc2)C1 (stereo unspecified)
7. O=C1CC2(CCCC2)C(=O)N1CC(O)COCc1ccccc1F (stereo unspecified)

-8.64
-1.9
27.1
28.2
4.19
-17.2
12.5

// fetch cytotoxicity at 70.5 h given entry Cc1cc(S(C)(=O)=O)c(C)c(S(=O)(=O)N2CCN(C)CC2)c1
32.6

* * *

assay: Human HepG2 cell viability assay in 384 well format; assay type: toxicity, cell-based; parameters: dose 125 nL, time 70.5 hour; concentration not given beside the values; details: HepG2 cells, read-out: Inhibition
observable: cytotoxicity at 70.5 h

- compound: "O=C(c1ccc(F)c(F)c1)N1CCCCC1c1nc[nH]n1 (stereo not drawn)"
  cytotoxicity at 70.5 h: "-6.52%"
- compound: "CCOc1ccc(Br)cc1C1CCCN1 (stereo not drawn)"
  cytotoxicity at 70.5 h: "18.6%"
- compound: "COc1ccc(CNC(C)c2cn[nH]c2C)cc1 (stereo not drawn)"
  cytotoxicity at 70.5 h: "14.1%"
- compound: "O=C(O)c1ccnc(-c2ccnc(NCCc3ccc(F)cc3)n2)c1"
  cytotoxicity at 70.5 h: "-5.83%"
- compound: "Cc1nnc(CN2CCC3(CCC(=O)N([C@H]4CC[C@H](O)CC4)C3)CC2)o1"
  cytotoxicity at 70.5 h: "-8.57%"
- compound: "COc1cc(CNCCn2cccn2)c2c(c1)CC(C)O2 (stereo not drawn)"
  cytotoxicity at 70.5 h: "7.89%"
- compound: "CCn1cnnc1C1CCN(C(=O)c2ccc(Cl)cc2OC)CC1"
  cytotoxicity at 70.5 h: "-9.75%"
- compound: "CN(C)CCO[C@H]1C[C@@H](O)C12CCN(c1nccc3ccccc13)CC2"
  cytotoxicity at 70.5 h: "-10.3%"
- compound: "CCCn1nnnc1CSCc1cn2c(C)cccc2n1"
  cytotoxicity at 70.5 h: "-12.9%"
- compound: "O=C(N1CCCO1)[C@@]12CCO[C@@H]1CCN(Cc1ccccc1)C2"
  cytotoxicity at 70.5 h: "-5%"

For every item in the list below, what is its measured cytotoxicity at 70.5 h?
1. CN(C)Cc1cnc2n1CCN(C(=O)NC1CCCC1)CC2
2. CC(C)(C)CC(=O)N1CC[C@H]2NC(=O)N(Cc3ccccc3)C(=O)[C@H]21
3. Cc1nc(C(=O)N2CCN(c3ccc(Cl)c(Cl)c3)CC2)cs1
4. Cc1nc[nH]c1C(=O)NCc1cccnc1N(C)C1CCCCC1
5. CCC(NC(=O)c1cc(OC)c2c(c1)OCCO2)c1cccs1 (stereo not drawn)
6. c1ccc2oc(CN3CCCC(Cn4cncn4)C3)nc2c1 (stereo not drawn)

1: -1.58%; 2: -4.69%; 3: -3.76%; 4: 4.83%; 5: -8.09%; 6: -1.69%

For every item in the list below, what is its measured cytotoxicity at 70.5 h?
1. Cc1nnc(C(NS(=O)(=O)c2cc(C)c(F)cc2F)C(C)C)[nH]1 (stereo not drawn)
2. Oc1ccc(-c2c(-c3ccccc3)ncn2C[C@H]2CCCN2)cc1
3. CC(=O)N1[C@H](Cn2cncn2)C[C@@H]2CN(c3ncccn3)CC[C@@H]21
4. Cn1cc(CN2Cc3cn(C)nc3C(COCC3CC3)C2)cn1 (stereo not drawn)
5. Cc1ccc(C(=O)NCCCN(C)S(C)(=O)=O)c(=O)[nH]1
6. O=C(Cn1cnc(-c2cccs2)cc1=O)Nc1cccnc1

-6.79%
-2.17%
1.33%
-5.92%
-5.2%
-4.25%

// fetch cytotoxicity at 70.5 h given entry Cc1ccccc1N1CCN(C2CCCN(C(=O)CCC(C)C)C2)CC1 (stereo not drawn)
-0.359%

* * *

test: Human HepG2 cell viability assay in 384 well format; type: toxicity, cell-based; set-up: dose 125 nL, time 70.5 hour; concentration not given beside the values; conditions: HepG2 cells, read-out: Inhibition
Answer each item with its documented cytotoxicity at 70.5 h.
One number for each entry, in %.

- molecule: "O=S1(=O)N=C(SCc2ccc(Cl)cc2)Nc2ccc(F)cc21"
  observable: "cytotoxicity at 70.5 h"
  display.unit: "%"
  endpoint.result: 7.01
- molecule: "CN(C)C(=O)c1cn[nH]c1C1CCCN1Cc1cncn1C (stereo unspecified)"
  observable: "cytotoxicity at 70.5 h"
  display.unit: "%"
  endpoint.result: -0.0963
- molecule: "CCOCCC1(CNC(=O)c2ccc(C)nc2)CCCC1"
  observable: "cytotoxicity at 70.5 h"
  display.unit: "%"
  endpoint.result: 0.601

For every item in the list below, what is its measured cytotoxicity at 70.5 h?
1. OC1(Cn2ccnc2)CCN(C[C@]2(O)CCCN3CCCC[C@@H]32)CC1
2. CNC(=O)c1cccc(C2CNCCN2C(C)=O)c1 (stereo unspecified)
3. CC1CCCN(CCNC(=O)c2ccn(-c3ccc(F)cc3)n2)C1 (stereo unspecified)
4. CS(=O)(=O)N1Cc2cnn(CC3CC3)c2C(COCC2CC2)C1 (stereo unspecified)
5. CCC(O)CN1CCN(C(=O)c2cccn2Cc2ccccc2)CC1 (stereo unspecified)
6. Cc1cccc(NC(=O)N(CCC(F)(F)F)C[C@H](O)CO)c1
7. CC(C)Oc1ccccc1NC(=O)N1CCC(n2cncn2)CC1
8. CCC(C)N1C(=O)c2ccc(C(=O)NCCc3c[nH]cn3)cc2C1=O (stereo unspecified)

11.3
14.8
-0.389
-6.21
-10.3
-5.55
-3.08
-2.09

* * *

assay: Human HepG2 cell viability dose-response assay; format: toxicity, cell-based
observable: pXC50

Previously resolved entries follow.
- compound: "CC(C)n1ccc(C(=O)NCC(O)c2c(Cl)cccc2Cl)n1 (stereo unspecified)"
  pXC50: "< 4.53"
- compound: "COCc1noc(-c2ccc(N(C)Cc3ncccc3C)nc2)n1"
  pXC50: 5.092
- compound: "COc1nn(C)c2c1CCCN(C(=O)c1ccc3c(c1)OCO3)C2.O=C(O)C(F)(F)F"
  pXC50: "< 4.53"
- compound: "CC1(C)Cc2nc(C(C)(C)C)ncc2C(NC(=O)C2(N)CC2)C1 (stereo unspecified)"
  pXC50: "< 4.53"
- compound: "CC(C)N(C)C(=O)c1ccc(CNc2ccncc2Cl)cc1"
  pXC50: "< 4.53"

Next, consider the following compound.
// fetch pXC50 given entry CN(C(=O)[C@H]1CSCN1C(=O)OC(C)(C)C)C1CC1
< 4.53
